tested on: GST-tagged Cn; assay: PEPperPRINT peptide microarray binding assay with GST-tagged Cn; conditions: max over the duplicate spots (Location on chip)
Measurement Type: Chip Fluorescence (max)
Enter the number alone.

Construct Sequence: ADETQPGIVVHVCELP [SeqRBMlowT_352]
Quantitative Result: 2.166
//
Construct Sequence: PTNGIPEMQRNSAKSA [Seqshuffled_9538]
Quantitative Result: 2.2337
//
Construct Sequence: TFWTNPQYKITLEDED [SeqRBMlowT_7336]
Quantitative Result: 2.0782
//
Construct Sequence: TFMMNPQYRLYKSVSP [SeqRBM_6553]
Quantitative Result: 2.027
//
Construct Sequence: KKMSPPCISVHPPDED [SeqRBMlowT_7695]
Quantitative Result: 2.045

Query block: Find Chip Fluorescence (max) (GST-tagged Cn) for the entry TFWTNPQYRIKLEEVD [SeqRBMlowT_627]
Result block: 1.99

Origin of measurements: paper PMC9928118
